Cited source: ChEMBL document CHEMBL3988442

Target: Shiga toxin 2 (Escherichia coli O157:H7) (UniProt P09385+P09386)
Experiment: E. coli 0.157:H7 Shiga Toxin SOP - stx2 screening assay
Assay type: functional
Design: scale not given: direction of the effect not stated beside the values
Details: 30 µM
So I've got a bunch of compounds here, and I need their Percent Effect values.
Give bare numbers, in %.

Worked set:
{"columns": ["Compound", "Assay endpoint", "Unit symbol", "Meas value"],
 "data": [
  ["CC(=O)N1CCC2(CC1)C(=O)N(CC1CC1)c1ccccc12", "Percent Effect", "%", -4.33],
  ["Cc1cc(CNC(=O)N2CCN(c3nc(C)c(C)s3)CC2)no1", "Percent Effect", "%", 24],
  ["CCNC(=O)c1nnc2ccc(N3CCOCC3)cc2n1", "Percent Effect", "%", -20.2],
  ["CC(C(=O)NCc1ccc(N2CCNC(=O)C2)cc1)n1cncn1 (centres undefined)", "Percent Effect", "%", -118],
  ["Cc1csc([C@@H]2C[C@@H]3CCN(Cc4cnn(C)c4)C[C@H]3O2)n1", "Percent Effect", "%", -29.9],
  ["COCC1CC2(CCN(Cc3cnn(C)c3)CC2)CN1c1ncccn1 (centres undefined)", "Percent Effect", "%", -22.6],
  ["CCC1=N[C@@]2(CC[C@@H]3CN(S(=O)(=O)N(C)C)C[C@@H]32)C(=O)N1CC(C)C", "Percent Effect", "%", 9.58],
  ["CCC(=O)N1CCN(Cc2cc(-c3ccncc3)nn2C)CC1", "Percent Effect", "%", -10.7],
  ["CC1COCCN1C(=O)c1cccc(OCc2cscn2)c1 (centres undefined)", "Percent Effect", "%", 0.62],
  ["COc1ccc2c(c1)CCCN2Cc1nc2c(cnn2C)c(=O)[nH]1", "Percent Effect", "%", -5.78]
]}

Please give Percent Effect, item by item, for the list that follows.
1. O=C1CCCc2nccc(-c3ccccc3)c21
2. Cn1cnc(-c2cc(C(=O)N3CCOCC3)c3ccccn23)c1
3. O=C(NCc1cccnc1)C1=NN(c2ccccc2)C(=O)CN1
4. CC(C)n1ccnc1CN1CCCN(C(=O)c2nccnc2N)CC1
5. COc1ccc(CN2CCc3ncnc(C4CCOC4)c3CC2)cc1 (centres undefined)
6. Cc1nccn1C1CCCN(C(=O)COCC(F)(F)F)C1 (centres undefined)
7. COc1ccc(C)cc1CC(=O)N1CCN(CC(C)O)CC1 (centres undefined)
8. COCCN(Cc1ccoc1)C(=O)c1c(F)cccc1Cl

[-14.1, -6.75, -1.16, -13.7, -53.7, -10.2, -20.5, 5.86]

Please give Percent Effect, item by item, for the list that follows.
1. O=C(Cc1ccc(F)cc1)N1CCn2cc(Cn3cccn3)nc2C1
2. Fc1cccnc1OC[C@@]12CCO[C@@H]1CCN(CC1CCOCC1)C2
3. Cc1nn(CC(=O)N2CCN(c3ccncc3)CC2)c(C)c1Cl

1. 5.65
2. 1.39
3. -36.1

Please give Percent Effect, item by item, for the list that follows.
1. CC(C)N1CCCC2(CCN(C(=O)CCCn3ccnc3)C2)C1=O (centres undefined)
2. O=C(NCc1cc[nH]n1)NCC(O)c1ccc(F)cc1F (centres undefined)

[15.9, -25]

Return reported Percent Effect; argument: CNC(=O)CN(C)c1nc(-c2ccncc2)nc2c1CCN(C(C)=O)C2
-0.42

###

Target: Aspartate--tRNA(Asp/Asn) ligase (Mycobacterium tuberculosis (strain ATCC 25618 / H37Rv)) (UniProt P9WFW3); also: in the data most compounds retested in dose-response had high values
Assay: Assay for Asp RNA synthetase-1 from Mycobacterium tuberculosis
Assay type: functional
Parameters: scale not given: direction of the effect not stated beside the values
Conditions: 30 µM
Assay endpoint: Percent Effect (%)
One number for each entry, in %.

Please give Percent Effect, item by item, for the list that follows.
1. COc1ccc(CNC2CCN(CCc3ccncc3)CC2)cc1O
2. O=C(CCCc1nc2ccccc2[nH]1)N1CCCC(n2cccn2)C1 (stereo unspecified)
3. Cn1cc(CNCC2Cn3nnc(-c4ccccc4)c3CO2)cn1 (stereo unspecified)
4. Cc1nc(Cn2nc(C3CCNCC3)n(Cc3ccccc3)c2=O)no1
5. CCCC1(CO)CCCN(c2ncccc2F)C1 (stereo unspecified)

1: 5.98; 2: 0.834; 3: 5.57; 4: -2.53; 5: 0.836

Return reported Percent Effect; argument: Cc1cnn(C2CCCN(C(=O)CCc3nccs3)C2)c1 (stereo unspecified)
-2.71

###

Molecular target: Aspartate--tRNA(Asp/Asn) ligase (Mycobacterium tuberculosis (strain ATCC 25618 / H37Rv)); also: in the data most compounds retested in dose-response had high values
Sequence (whole entry): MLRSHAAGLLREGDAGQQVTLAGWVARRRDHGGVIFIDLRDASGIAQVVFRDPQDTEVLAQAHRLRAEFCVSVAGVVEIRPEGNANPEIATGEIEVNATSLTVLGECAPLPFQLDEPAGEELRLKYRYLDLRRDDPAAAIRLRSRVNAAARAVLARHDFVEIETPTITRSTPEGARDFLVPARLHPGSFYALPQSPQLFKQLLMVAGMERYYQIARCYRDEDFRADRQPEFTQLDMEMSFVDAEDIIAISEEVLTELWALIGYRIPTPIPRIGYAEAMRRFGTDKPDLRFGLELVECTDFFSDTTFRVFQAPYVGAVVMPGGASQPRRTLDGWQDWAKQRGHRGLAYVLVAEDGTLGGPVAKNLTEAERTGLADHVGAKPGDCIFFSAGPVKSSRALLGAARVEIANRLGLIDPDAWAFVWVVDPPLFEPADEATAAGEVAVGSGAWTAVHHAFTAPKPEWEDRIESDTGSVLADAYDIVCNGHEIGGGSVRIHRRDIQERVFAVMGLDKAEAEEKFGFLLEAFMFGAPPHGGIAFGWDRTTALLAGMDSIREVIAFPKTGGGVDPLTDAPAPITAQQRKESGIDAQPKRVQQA
Experiment: Assay for Asp RNA synthetase-1 from Mycobacterium tuberculosis
Type: functional
Set-up: scale not given: direction of the effect not stated beside the values
Conditions: 30 µM
Assay endpoint: Percent Effect (%)
Numbers only, in %.

Worked set:
{"columns": ["Compound", "Unit symbol", "Percent Effect"],
 "data": [
  ["COC(=O)N1CCc2ccc(NC(=O)c3cn(C)nn3)cc2C1", "%", -0.627],
  ["Cc1cccc(-c2noc(CN3CC(n4cc(C)cn4)C3)n2)c1", "%", -0.577],
  ["CCC(C)(NCC(=O)Nc1nc(C)cs1)c1nc(C)cs1 (stereo unspecified)", "%", 2.89],
  ["C[C@H]1C[C@H]2CN(C(=O)c3ccncn3)CC[C@H]2O1", "%", -0.436],
  ["CCn1c(CN(C)C)nnc1C1CCN(Cc2ccccc2)CC1", "%", -0.862]
]}

In the following, a different compound is considered.
Return reported Percent Effect; argument: NC[C@H]1CC[C@H](C(NC(=O)c2ccccc2)c2ccccn2)CC1 (stereo partly specified)
1.63

###

Target: Aspartate--tRNA(Asp/Asn) ligase (Mycobacterium tuberculosis (strain ATCC 25618 / H37Rv)); also: in the data most compounds retested in dose-response had high values
Assay: Assay for Asp RNA synthetase-1 from Mycobacterium tuberculosis
Assay type: functional
Design: scale not given: direction of the effect not stated beside the values
Settings: 30 µM
So I've got a bunch of compounds here, and I need their Percent Effect values.
Numbers only, in %.

Worked set:
{"columns": ["Compound", "Percent Effect, %"],
 "data": [
  ["Cc1cc(F)ccc1S(=O)(=O)NCc1cccc(C(=O)N2CCCC2)c1", -1.3],
  ["Cc1nc(C)n(C2CCCN(C(=O)c3csc(C(C)C)n3)C2)n1 (stereo not given)", 7.62],
  ["FC(F)(F)COCCN1CCN(c2ccc3nncn3n2)CC1", 0.546],
  ["Cn1cc(CN2CCCC3(CCN(Cc4cccnc4)C3=O)C2)cn1 (stereo not given)", -1.18],
  ["Cc1cccc(-c2ccc(C(=O)NCC(C)(C)C(N)=O)c(=O)[nH]2)c1", 7.72]
]}

Please give Percent Effect, item by item, for the list that follows.
1. Cc1ccccc1C1(CNc2nnc(C)c(C)c2C#N)CCOCC1
2. CCN1CC2(CCN(CCOCCO)CC2)CC(c2ccccc2)C1=O (stereo not given)
3. CCn1cnnc1CNC(=O)c1ccc(Cl)cc1F

2.96
-2.77
1.24

Please give Percent Effect, item by item, for the list that follows.
1. O=C(CCCc1cn[nH]c1)N1CCOCC(O)C1 (stereo not given)
2. O=C(CCCOc1ccc(F)cc1F)N1CCCC1Cn1cccn1 (stereo not given)
3. O=C1[C@H]2CN(Cc3nccs3)C[C@H]2CN1c1ccsc1
4. COc1cc(C(=O)N2CCCC(CNS(C)(=O)=O)C2)cc(OC)c1C (stereo not given)
5. Cc1ccc(C(=O)N2CCc3c(CNS(C)(=O)=O)cncc3C2)o1

5.55
-7.61
5
-4.03
9.11

Please give Percent Effect, item by item, for the list that follows.
1. CN(C)c1cc(C(=O)NCCc2nnc(-c3ccco3)[nH]2)ccn1
2. Cc1noc(CN2CCOC(CN(C)C)C2)n1 (stereo not given)

1. -1.56
2. -7.81
